Source listed as PubChem BioAssay (NCI).

# Test system: HCT-15 colon
# test-details: NCI-60 one-dose screen, 48 h (100 = growth as untreated, 0 = no growth, -100 = all killed)
# test-settings: 10 µM unless noted
About 83,000 compounds went through this panel and 20% of them were active in at least one assay; those are over-represented in the sample as a whole.
Please mark label 1 if the recorded growth is equal to or greater than 40%, and label 0 if it falls below.

- molecule: "CC12CC[C@@H]3[C@]4(C)COC(c5cn[nH]c5-c5ccc(Br)cc5)O[C@@H]4CC[C@@]3(C)[C@@H]1CC(C1=CCOC1=O)O2 (stereo not given in full)"
  label: "label 1"
- molecule: "COc1c(F)ccc(C(=O)Nc2ccc3nc(NC(=O)C4CCCN(S(=O)(=O)c5ccc(C(F)(F)F)cc5)C4)sc3c2)c1F (stereo not given)"
  label: "label 1"
- molecule: "O=C1CCCc2cc(OCC(=O)N3CCCCC3)ccc2N1"
  label: "label 1"
- molecule: "CSc1ccc(NC(=O)c2ccc3nn(/C(C#N)=C/c4ccccn4)nc3c2)cc1"
  label: "label 0"
- molecule: "COc1cc(-c2ccc(/C=N/NC(=O)c3[nH]c4ccc(Br)cc4c3-c3ccccc3)s2)cc(OC)c1OC"
  label: "label 1"

Request: Please check the record "Nc1cc2ccccc2c(=O)n1NC(=O)c1ccc(I)cc1" and state if its growth is at or above 40%.
Response: label 1

Request: Please check the record "Cc1ccc(/C=C/c2n(Cc3ccc4ccccc4c3)c3ccccc3[n+]2Cc2ccc3ccccc3c2)cc1" and state if its growth is at or above 40%.
Response: label 0

Request: Please check the record CC1(c2cc3cc(Br)ccc3oc2=O)NC(=O)c2c(/C=C/C(=O)OC3CC4CCC3(C)C4(C)C)cccc2N1 (stereo not given) and state if its growth is at or above 40%.
Response: label 1

Request: Please check the record COc1c(F)ccc(C(=O)Nc2ccc3nc(NC(=O)C4CCCN(S(=O)(=O)c5cccc(Cl)c5)C4)sc3c2)c1F (stereo not given) and state if its growth is at or above 40%.
Response: label 1

Request: Please check the record "Brc1ccc(N/N=C/c2c[nH]c3ccc(Br)cc23)nc1" and state if its growth is at or above 40%.
Response: label 0

Request: Please check the record "N#Cc1c(-c2cccc3ccccc23)cc(-c2cccc(OCC(=O)O)c2)[nH]c1=O" and state if its growth is at or above 40%.
Response: label 1

Request: Please check the record "NS(=O)(=O)c1ccc(N=Nc2c(O)n(CC(=O)Nc3ccccc3Cl)c3ccccc23)cc1" and state if its growth is at or above 40%.
Response: label 0

Request: Please check the record "COc1ccc(C2(SCCNCc3cc(N(C)C)ccn3)c3ccccc3C=Cc3ccccc32)cc1" and state if its growth is at or above 40%.
Response: label 0

Request: Please check the record O=C(c1ccc(OCCN2CCOCC2)cc1)C1[C@H](c2ccc(Cl)cc2)[C@@H](c2ccccc2)NC12C(=O)Nc1ccc(Cl)cc12 (stereo not given in full) and state if its growth is at or above 40%.
Response: label 0

Request: Please check the record CN(C)c1nc(NCCNS(=O)(=O)c2ccc(C3=Nc4c(N)nc(N)nc4NC(c4ccc(C(F)(F)F)cc4)C3)cc2)nc(Nc2ccc(F)cc2)n1 (stereo not given) and state if its growth is at or above 40%.
Response: label 0

Request: Please check the record "CN1CCN(c2ccc(C(=O)/C=C/c3ccc(Br)cc3)cc2)CC1" and state if its growth is at or above 40%.
Response: label 0

Request: Please check the record "Cn1cc(-c2cc3nc(-c4cn(C)c5ncc(Br)cc45)cc(N)n3n2)c2cc(Cl)ccc21" and state if its growth is at or above 40%.
Response: label 0

Request: Please check the record C=C1CC[C@@H]2[C@]3(C)COC(c4cn[nH]c4-c4ccccc4)O[C@@H]3CC[C@@]2(C)[C@@H]1C/C=C1/C(=O)OCC1O (stereo not given in full) and state if its growth is at or above 40%.
Response: label 0

Request: Please check the record "Cn1cc(-c2cc3nc(-c4cn(C)c5ncccc45)cc(N)n3n2)c2cc(Cl)ccc21" and state if its growth is at or above 40%.
Response: label 0

Request: Please check the record "COc1ccc(C(=O)/C=C/c2ccccc2Br)cc1S(N)(=O)=O" and state if its growth is at or above 40%.
Response: label 0

Request: Please check the record C=C1CCC2C3(C)COC(c4cccs4)OC3CCC2(C)C1CC(Sc1ccccc1)C1=CCOC1=O (stereo not given) and state if its growth is at or above 40%.
Response: label 1

Request: Please check the record O=C(/C=C/c1ccc(O)c(O)c1)NC1CCOC1O (stereo not given) and state if its growth is at or above 40%.
Response: label 1

Request: Please check the record CC12CC[C@@H]3[C@]4(C)COC(c5cn[nH]c5-c5cccc(Cl)c5)O[C@@H]4CC[C@@]3(C)[C@@H]1CC(C1=CCOC1=O)O2 (stereo not given in full) and state if its growth is at or above 40%.
Response: label 0

Request: Please check the record "C=CC[N+](C)(C)CCn1c2ccccc2c2nc3cc(C)c(C)cc3nc21" and state if its growth is at or above 40%.
Response: label 1

Request: Please check the record "CC(=O)Nc1ccc(-c2nc3cc(-c4ccc(O)cc4)ccc3n2C)cc1" and state if its growth is at or above 40%.
Response: label 0

Request: Please check the record "COc1ccc(Cc2nn(CC(=O)N/N=C/c3ccc(F)cc3)c(=O)c3c(C)noc23)cc1" and state if its growth is at or above 40%.
Response: label 1

Request: Please check the record CC1(C)CC[C@]2(C(=O)O)CC[C@]3(C)C(=CCC4[C@@]5(C)C[C@@H](O)[C@@H]6OC(c7ccc(F)cc7)OC[C@@]6(C)C5CC[C@]43C)C2C1 (stereo not given in full) and state if its growth is at or above 40%.
Response: label 0

Request: Please check the record "CN1CCN(c2ccc3c(c2)nc(NNC(=O)c2ncccn2)c2cccn23)CC1" and state if its growth is at or above 40%.
Response: label 0

Request: Please check the record "COc1cc(OC)cc(-c2cc3ccc(N(C)C)cc3c(=O)[nH]2)c1" and state if its growth is at or above 40%.
Response: label 0

Request: Please check the record CCOC(=O)/C=C/c1cccc2c1C(=O)NC(C)(c1cc3cc(Cl)ccc3oc1=O)N2 (stereo not given) and state if its growth is at or above 40%.
Response: label 0

Request: Please check the record "COc1ccc(-c2nc3cc(C)ccc3n2CC(=O)N=Nc2c(O)[nH]c3ccc(Br)cc23)cc1" and state if its growth is at or above 40%.
Response: label 0

====

# System: SK-MEL-2 melanoma
# test-details: NCI-60 one-dose screen, 48 h
# test-settings: 10 µM unless noted
About 83,000 compounds went through this panel and 20% of them were active in at least one assay; those are over-represented in the sample as a whole. The source made the active and inactive calls. The calls were made as follows: active = growth percent below 10; inactive = the rest.
Permitted responses: y = active, n = inactive

A selection of reference data follows.
- molecule: "CC(=O)NNc1ccc2nnc(-c3ccccc3)n2n1"
  label: "n"
- molecule: "CC1(C)CC[C@]2(C(=O)O)CC[C@]3(C)C(=CCC4[C@@]5(C)C[C@@H](O)[C@@H]6OC(c7cccc(Br)c7)OC[C@@]6(C)C5CC[C@]43C)C2C1 (some centres undefined)"
  label: "n"
- molecule: "CCCCCCCCc1ccc(C(=O)Nc2ccc(C)cc2C(=O)O)cc1C"
  label: "n"
- molecule: "Cn1cc(-c2nc(N)nnc2-c2c[nH]c3ccc(Br)cc23)c2cccnc21"
  label: "n"
- molecule: "C=C1CCC2C3(C)COC(c4ccccc4)OC3CCC2(C)C1CC(NCc1ccccc1)C1=CCOC1=O (centres undefined)"
  label: "n"

Pending molecule:
Request: Hi, do you know how "COc1ccc(C(=O)/C=C/c2cccc(Br)c2)cc1S(N)(=O)=O" came out in this test?
Response: y

====

# System: UACC-257 melanoma
# test-details: NCI-60 one-dose screen, 48 h
# test-settings: 10 µM unless noted
This is part of a sample that, as a whole, favours compounds with a hit. Of some 83,000 tested, about 20% had one in any assay. Active and inactive are the calls of the source. The calls were made as follows: active = growth percent below 10; inactive = the rest.
Permitted responses: active, inactive

A selection of reference data follows.
- compound: "CC1=C(C(=O)OCc2ccccc2)C(c2ccc(-n3cncn3)cc2)n2c(nc3ccccc32)N1 (stereo not drawn)"
  label: "inactive"
- compound: "O=[N+]([O-])c1ccc(/C=C/c2nc3ccccc3n3c(=S)[nH]nc23)cc1"
  label: "inactive"
- compound: "CN(C)c1ccnc(CNCCSC2(c3ccc(C(F)(F)F)cc3)c3ccccc3CCc3ccccc32)c1"
  label: "active"
- compound: "CC(=O)NNc1ccc2nnc(-c3ccccc3)n2n1"
  label: "inactive"
- compound: "COc1cc(CNC(=O)/C=C/c2ccc3c(c2)OCO3)ccc1OCc1cn(-c2ccc([N+](=O)[O-])cc2)nn1"
  label: "inactive"

Request: Hi, do you know how COc1ccc(NC(=O)[C@H](CO)NC(=O)OC(C)(C)C)cc1C(=O)Nc1cccc(C2CC(=O)c3c(cc(OC)c(OC)c3OC)O2)c1 (stereo partly drawn) came out in this test?
Response: inactive

Request: Hi, do you know how "N/C(=N\N=C\c1ccc([N+](=O)[O-])cc1)c1c(N)nc(=S)[nH]c1-c1ccc(Cl)cc1Cl" came out in this test?
Response: inactive

Request: Hi, do you know how C=C1CC[C@@H]2[C@]3(C)COC(c4cn[nH]c4-c4ccc(Br)cc4)O[C@@H]3CC[C@@]2(C)[C@@H]1C/C=C1/C(=O)OCC1O (stereo partly drawn) came out in this test?
Response: active
